- assayed system: UniProt:P08684
- Sequence (P08684 whole entry): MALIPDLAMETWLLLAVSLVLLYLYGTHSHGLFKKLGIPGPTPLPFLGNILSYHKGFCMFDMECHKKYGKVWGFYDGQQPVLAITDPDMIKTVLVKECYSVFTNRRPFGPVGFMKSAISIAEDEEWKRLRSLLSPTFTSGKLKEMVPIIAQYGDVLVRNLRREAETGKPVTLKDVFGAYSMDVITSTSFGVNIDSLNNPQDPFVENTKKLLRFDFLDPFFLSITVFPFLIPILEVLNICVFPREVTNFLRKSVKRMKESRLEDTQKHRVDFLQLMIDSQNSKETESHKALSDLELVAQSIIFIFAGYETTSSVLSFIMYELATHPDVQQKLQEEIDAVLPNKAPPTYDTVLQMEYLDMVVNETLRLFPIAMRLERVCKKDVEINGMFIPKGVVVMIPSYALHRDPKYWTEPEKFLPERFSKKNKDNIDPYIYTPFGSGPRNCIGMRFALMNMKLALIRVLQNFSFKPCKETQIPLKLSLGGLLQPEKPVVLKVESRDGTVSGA
- protocol summary: in vitro
- condition notes: human liver microsomes, probe midazolam
Please respond with reported inhibition at 30 min, 10 µM for every item in the list.

input: Look up inhibition at 30 min, 10 µM: `Nc1nc2ccc(C(=O)N3CCOC[C@@H]3c3ccc(Cl)cc3)cc2c2c1COC2`
output: < 20%

input: Look up inhibition at 30 min, 10 µM: `Cc1cc2cc(C(=O)N(Cc3ccc(C(F)(F)F)cn3)[C@H](C)c3ncccn3)ncc2nc1N`
output: 31%

input: Look up inhibition at 30 min, 10 µM: Nc1nc2ncc(C(=O)N3CCOCC3c3ccc(C(F)(F)F)cc3)cc2c2c1COC2 (centres undefined)
output: < 20%

input: Look up inhibition at 30 min, 10 µM: `C[C@H](c1ncccn1)N(Cc1ccc(C(F)(F)F)cn1)C(=O)c1cc2c3c(c(N)nc2cc1F)COC3`
output: ≤ 10%

input: Look up inhibition at 30 min, 10 µM: `Cc1cc2cc(C(=O)N(Cc3ccc(C(F)(F)F)cn3)CC(C)C)ccc2nc1N`
output: 52%

input: Look up inhibition at 30 min, 10 µM: `C[C@@H]1OCc2c1c(N)nc1cnc(C(=O)N3CCOC[C@@H]3c3ccc(C(F)(F)F)cc3)cc21`
output: < 20%

input: Look up inhibition at 30 min, 10 µM: `Cc1cc2cc(C(=O)N(Cc3ccc(C(F)(F)F)cn3)[C@H](C)c3ncccn3)cnc2nc1N`
output: 70%

input: Look up inhibition at 30 min, 10 µM: `Nc1nc2ccc(C(=O)N3CCOC[C@@H]3c3ccc(C(F)(F)F)nc3)cc2c2c1COC2`
output: < 20%

input: Look up inhibition at 30 min, 10 µM: Nc1nc2ccc(C(=O)N3CCOCC3c3ccc(C(F)(F)F)cn3)cc2c2c1COC2 (racemic)
output: < 20%

input: Look up inhibition at 30 min, 10 µM: Nc1nc2ccc(C(=O)N3CCCC3c3ccc(C(F)(F)F)cn3)cc2c2c1COC2 (centres undefined)
output: < 20%

input: Look up inhibition at 30 min, 10 µM: `Nc1nc2ccc(C(=O)N3CCOC[C@@H]3c3ccc(C(F)(F)F)cn3)cc2c2c1COC2`
output: < 20%

input: Look up inhibition at 30 min, 10 µM: `Nc1nc2cnc(C(=O)N3CCCC[C@@H]3c3ccc(C(F)(F)F)cc3)cc2c2c1COC2`
output: < 20%

input: Look up inhibition at 30 min, 10 µM: `C[C@H](c1ncccn1)N(Cc1ccc(C(F)(F)F)cn1)C(=O)c1cc2c3c(c(N)nc2cn1)COC3`
output: 4%

input: Look up inhibition at 30 min, 10 µM: `C[C@H](c1ncccn1)N(Cc1ccc(C(F)(F)F)cn1)C(=O)c1ccc2nc(N)c3c(c2c1)CCC3`
output: 8%

input: Look up inhibition at 30 min, 10 µM: `C[C@H]1OCc2c1c(N)nc1cnc(C(=O)N3CCOC[C@@H]3c3ccc(C(F)(F)F)cc3)cc21`
output: < 20%

input: Look up inhibition at 30 min, 10 µM: `C[C@H](c1ncccn1)N(Cc1ccc(C(F)(F)F)cn1)C(=O)c1ccc2nc(N)ccc2c1`
output: 21%

input: Look up inhibition at 30 min, 10 µM: `Nc1nc2cnc(C(=O)N3CCC(F)(F)C[C@@H]3c3ccc(C(F)(F)F)cc3)cc2c2c1COC2`
output: < 20%

input: Look up inhibition at 30 min, 10 µM: `Nc1nc2ccc(C(=O)N3CCOC[C@@H]3c3ccc(C(F)(F)F)cc3)cc2c2c1COC2`
output: < 20%

input: Look up inhibition at 30 min, 10 µM: `CN(Cc1ccc(C(F)(F)F)cn1)C(=O)c1ccc2nc(N)c3c(c2c1)COC3`
output: < 20%

---

- protocol summary: Oral bioavailability in CD-1 mouse at 5 mg/kg administered as 1% Tween 80, 2% HPMC, 97% water/methane sulfonic acid, pH 2.0 formulation
- Assay type: ADME, organism-based
- condition notes: in vivo
value type: bioavailability (%)
Field: numeric (%). Do not append units.

input: Look up bioavailability: `C[C@H]1OCc2c1c(N)nc1cnc(C(=O)N3CCOC[C@@H]3c3ccc(C(F)(F)F)cc3)cc21`
output: 82

input: Look up bioavailability: `CN(Cc1ccc(C(F)(F)F)cn1)C(=O)c1ccc2nc(N)c3c(c2c1)COC3`
output: 64

input: Look up bioavailability: `CCN(Cc1ccc(C(F)(F)F)cn1)C(=O)c1ccc2nc(N)c3c(c2c1)COC3`
output: 95

input: Look up bioavailability: `Nc1nc2ccc(C(=O)N3CCOC[C@@H]3c3ccc(C(F)(F)F)nc3)cc2c2c1COC2`
output: 46

---

- System: human MDR1 (P-gp)
- protocol summary: Efflux ratio of permeability across basolateral to apical side over apical to basolateral side in MDCK cells transfected with human MDR1 in absence of elacridar
- condition notes: dog
Classify as follows. Reported efflux ratio greater than or equal to 30: Condition met. Reported efflux ratio below: Condition not met.

input: Can `Nc1nc2cnc(C(=O)N3CCC(F)(F)C[C@@H]3c3ccc(C(F)(F)F)cc3)cc2c2c1COC2` be said to have efflux ratio at or above 30?
output: Condition not met

input: Can `CCN(Cc1ccc(C(F)(F)F)cn1)C(=O)c1ccc2nc(N)c3c(c2c1)COC3` be said to have efflux ratio at or above 30?
output: Condition not met

input: Can `C[C@H](c1ncccn1)N(Cc1ccc(C(F)(F)F)cn1)C(=O)c1ccc2nc(N)c3c(c2c1)COC3` be said to have efflux ratio at or above 30?
output: Condition met

input: Can `C[C@H](c1ncccn1)N(Cc1ccc(C(F)(F)F)cn1)C(=O)c1cc2c3c(c(N)nc2cc1F)COC3` be said to have efflux ratio at or above 30?
output: Condition met

input: Can `Nc1nc2cnc(C(=O)N3CCOC[C@@H]3c3ccc(C(F)(F)F)cc3)cc2c2c1COC2` be said to have efflux ratio at or above 30?
output: Condition not met

input: Can `C[C@H](c1ncccn1)N(Cc1ccc(C(F)(F)F)cn1)C(=O)c1ccc2nc(N)c(Cl)cc2c1` be said to have efflux ratio at or above 30?
output: Condition not met

input: Can `C[C@H](c1ncccn1)N(Cc1ccc(C(F)(F)F)cn1)C(=O)c1ccc2nc(N)c3c(c2c1)CCC3` be said to have efflux ratio at or above 30?
output: Condition met

input: Can `Nc1nc2ccc(C(=O)N3CCOC[C@@H]3c3ccc(C(F)(F)F)nc3)cc2c2c1COC2` be said to have efflux ratio at or above 30?
output: Condition met

input: Can `C[C@@H]1COC[C@H](c2ccc(C(F)(F)F)cc2)N1C(=O)c1cc2c3c(c(N)nc2cn1)COC3` be said to have efflux ratio at or above 30?
output: Condition not met

---

- assayed system: Nuclear receptor subfamily 1 group I member 2 (Homo sapiens, UniProt O75469)
- Sequence (O75469 whole entry): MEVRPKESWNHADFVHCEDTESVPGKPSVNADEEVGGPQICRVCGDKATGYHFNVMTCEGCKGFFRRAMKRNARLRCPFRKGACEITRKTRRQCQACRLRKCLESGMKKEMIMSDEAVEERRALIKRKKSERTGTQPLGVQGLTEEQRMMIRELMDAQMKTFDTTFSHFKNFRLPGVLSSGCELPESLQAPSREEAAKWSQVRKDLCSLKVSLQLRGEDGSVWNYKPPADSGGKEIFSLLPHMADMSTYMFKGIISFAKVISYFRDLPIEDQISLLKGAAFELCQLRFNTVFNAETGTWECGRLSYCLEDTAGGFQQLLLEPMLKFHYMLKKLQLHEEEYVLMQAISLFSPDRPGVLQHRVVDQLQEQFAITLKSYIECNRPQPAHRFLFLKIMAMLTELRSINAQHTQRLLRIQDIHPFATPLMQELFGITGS
- protocol summary: Activation of human PXR in human HepG2 cells co-transfected with CYP3A4-luciferase at 10 uM incubated for 1 day relative to control
- condition notes: hepg2, 24 h
value type: Activity

input: Look up Activity: `Nc1nc2cnc(C(=O)N3CCCC[C@@H]3c3ccc(C(F)(F)F)cc3)cc2c2c1COC2`
output: < 20%

input: Look up Activity: `C[C@@H]1OCc2c1c(N)nc1cnc(C(=O)N3CCOC[C@@H]3c3ccc(C(F)(F)F)cc3)cc21`
output: < 20%

input: Look up Activity: Nc1nc2ncc(C(=O)N3CCOCC3c3ccc(C(F)(F)F)cc3)cc2c2c1COC2 (stereo not given)
output: < 20%

input: Look up Activity: `Nc1nc2ccc(C(=O)N3CCOC[C@H]3c3ccc(C(F)(F)F)cn3)cc2c2c1COC2`
output: < 20%

input: Look up Activity: `Nc1nc2cnc(C(=O)N3CCC(F)(F)C[C@@H]3c3ccc(C(F)(F)F)cc3)cc2c2c1COC2`
output: < 20%

input: Look up Activity: `Nc1nc2ccc(C(=O)N3CCOC[C@@H]3c3ccc(Cl)cc3)cc2c2c1COC2`
output: < 20%

input: Look up Activity: `Nc1nc2ccc(C(=O)N3CCOC[C@@H]3c3ccc(C(F)(F)F)cc3)cc2c2c1COC2`
output: < 20%

input: Look up Activity: `Nc1nc2cnc(C(=O)N3CCOC[C@@H]3c3ccc(C(F)(F)F)cc3)cc2c2c1COC2`
output: < 20%

input: Look up Activity: Nc1nc2ccc(C(=O)N3CCOCC3c3ccc(C(F)(F)F)cn3)cc2c2c1COC2 (racemic)
output: < 20%

input: Look up Activity: `Nc1nc2ccc(C(=O)N3CCOC[C@@H]3c3ccc(C(F)(F)F)cn3)cc2c2c1COC2`
output: < 20%

input: Look up Activity: `C[C@@H]1COC[C@H](c2ccc(C(F)(F)F)cc2)N1C(=O)c1cc2c3c(c(N)nc2cn1)COC3`
output: < 20%

input: Look up Activity: Nc1nc2ccc(C(=O)N3CCCC3c3ccc(C(F)(F)F)cn3)cc2c2c1COC2 (stereo not given)
output: < 20%

input: Look up Activity: `CCN(Cc1ccc(C(F)(F)F)cn1)C(=O)c1ccc2nc(N)c3c(c2c1)COC3`
output: < 20%

input: Look up Activity: `CN(Cc1ccc(C(F)(F)F)cn1)C(=O)c1ccc2nc(N)c3c(c2c1)COC3`
output: < 20%

input: Look up Activity: `Nc1nc2ccc(C(=O)N3CCOC[C@@H]3c3ccc(C(F)(F)F)nc3)cc2c2c1COC2`
output: < 20%
